Data provenance is patent US20110112308A1.

PROTOCOL TEXT: Solid-state stability
Assay type: physicochemical
STATED CONDITIONS: Bulk stability, 2 weeks, 50° C./75% r.h.

| COMPOUND | assay |
| --- | --- |
| CS(=O)(=O)O.Cc1[nH]c2ccccc2c1CCNCc1ccc(/C=C/C(=O)NO)cc1 [Mesylate] | [100.0] |
| Cc1[nH]c2ccccc2c1CCNCc1ccc(/C=C/C(=O)NO)cc1.O=C(O)/C=C\C(=O)O [Maleate] | [100.0] |

###

PROTOCOL TEXT: Stability of mixtures with excipients
Type: physicochemical
STATED CONDITIONS: Standard, freshly prepared
READOUT: % DS (drug substance) (% area)

| COMPOUND | EXPERIMENTAL RESULT |
| --- | --- |
| CS(=O)(=O)O.Cc1[nH]c2ccccc2c1CCNCc1ccc(/C=C/C(=O)NO)cc1 [Mesylate] | 99.5 |
| CC(O)C(=O)O.Cc1[nH]c2ccccc2c1CCNCc1ccc(/C=C/C(=O)NO)cc1.O (racemic) [Monohydrate DL-lactate salt] | 99.6 |
| Cc1[nH]c2ccccc2c1CCNCc1ccc(/C=C/C(=O)NO)cc1 [Free base] | 99.5 |
| Cc1[nH]c2ccccc2c1CCNCc1ccc(/C=C/C(=O)NO)cc1.Cl [HCl] | 99.7 |
| Cc1[nH]c2ccccc2c1CCNCc1ccc(/C=C/C(=O)NO)cc1.O=C(O)/C=C\C(=O)O [Maleate] | 99.8 |
